The following binders are shown together with reported pIC50 values.
# System: T1, hu-IL-7Rγc subunit (human), P31785
# T1 chain: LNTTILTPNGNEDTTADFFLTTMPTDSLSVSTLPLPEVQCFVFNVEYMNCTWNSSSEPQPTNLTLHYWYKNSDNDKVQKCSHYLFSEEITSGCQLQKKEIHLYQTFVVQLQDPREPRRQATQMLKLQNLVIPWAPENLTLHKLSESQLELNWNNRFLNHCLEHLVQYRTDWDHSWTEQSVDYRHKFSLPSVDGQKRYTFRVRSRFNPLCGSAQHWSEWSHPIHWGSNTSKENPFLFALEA
# Test Summary: phage ELISA competition assay
pIC50: −log10 of the molar value.
Experimental Endpoint: pIC50

{"Binder": "VVCQDWEGVELCWQ (modifications not checked) [SEQ ID NO 261]", "Result": "> 4.00"}
{"Binder": "GGVVCQDWEGVELCWQ (modifications not checked) [SEQ ID NO 326]", "Result": "> 4.00"}
{"Binder": "VVCQDWEGVELCWQGG (modifications not checked) [SEQ ID NO 325]", "Result": "> 4.00"}

Source: patent US20240100159A1
